B1: TSN (parent)
chain: FLAAEQDIREEIRKVVQSLEQTAR

Variants of: B1
EXPERIMENT_SUMMARY: protein stability index of a GFP-peptide fusion (GPS, HEK-293T) (PSI 1-6); higher = more stable;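 also: lentivirally expressed fusions sorted by FACS into six bins by GFP to DsRed ratio, PSI derived from sequencing read proportions per bin multiplied by bin number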
REPORTED_CONDITIONS: c terminus: a fixed tail appended
The label depends only on protein stability index: Met if it is at least 2, Not met if it is smaller.

These recorded examples may help you get a feel for the data.
1) R9C | Not met
2) Q17L | Met
3) V16A | Met
4) R13I | Not met
5) R13V | Not met
6) T22N | Met
7) L2Y | Not met
8) E11G | Met

Hi team, for A4S , is the recorded protein stability index at or above 2?
Met

Is protein stability index at least 2? Consider A3R
Met

These entries and their values trace back to the supplement of paper PMC10567573.
